These data points were gathered from patent US20250120967A1.

test.target: UniProt Q04912
Sequence (Q04912 25-1400): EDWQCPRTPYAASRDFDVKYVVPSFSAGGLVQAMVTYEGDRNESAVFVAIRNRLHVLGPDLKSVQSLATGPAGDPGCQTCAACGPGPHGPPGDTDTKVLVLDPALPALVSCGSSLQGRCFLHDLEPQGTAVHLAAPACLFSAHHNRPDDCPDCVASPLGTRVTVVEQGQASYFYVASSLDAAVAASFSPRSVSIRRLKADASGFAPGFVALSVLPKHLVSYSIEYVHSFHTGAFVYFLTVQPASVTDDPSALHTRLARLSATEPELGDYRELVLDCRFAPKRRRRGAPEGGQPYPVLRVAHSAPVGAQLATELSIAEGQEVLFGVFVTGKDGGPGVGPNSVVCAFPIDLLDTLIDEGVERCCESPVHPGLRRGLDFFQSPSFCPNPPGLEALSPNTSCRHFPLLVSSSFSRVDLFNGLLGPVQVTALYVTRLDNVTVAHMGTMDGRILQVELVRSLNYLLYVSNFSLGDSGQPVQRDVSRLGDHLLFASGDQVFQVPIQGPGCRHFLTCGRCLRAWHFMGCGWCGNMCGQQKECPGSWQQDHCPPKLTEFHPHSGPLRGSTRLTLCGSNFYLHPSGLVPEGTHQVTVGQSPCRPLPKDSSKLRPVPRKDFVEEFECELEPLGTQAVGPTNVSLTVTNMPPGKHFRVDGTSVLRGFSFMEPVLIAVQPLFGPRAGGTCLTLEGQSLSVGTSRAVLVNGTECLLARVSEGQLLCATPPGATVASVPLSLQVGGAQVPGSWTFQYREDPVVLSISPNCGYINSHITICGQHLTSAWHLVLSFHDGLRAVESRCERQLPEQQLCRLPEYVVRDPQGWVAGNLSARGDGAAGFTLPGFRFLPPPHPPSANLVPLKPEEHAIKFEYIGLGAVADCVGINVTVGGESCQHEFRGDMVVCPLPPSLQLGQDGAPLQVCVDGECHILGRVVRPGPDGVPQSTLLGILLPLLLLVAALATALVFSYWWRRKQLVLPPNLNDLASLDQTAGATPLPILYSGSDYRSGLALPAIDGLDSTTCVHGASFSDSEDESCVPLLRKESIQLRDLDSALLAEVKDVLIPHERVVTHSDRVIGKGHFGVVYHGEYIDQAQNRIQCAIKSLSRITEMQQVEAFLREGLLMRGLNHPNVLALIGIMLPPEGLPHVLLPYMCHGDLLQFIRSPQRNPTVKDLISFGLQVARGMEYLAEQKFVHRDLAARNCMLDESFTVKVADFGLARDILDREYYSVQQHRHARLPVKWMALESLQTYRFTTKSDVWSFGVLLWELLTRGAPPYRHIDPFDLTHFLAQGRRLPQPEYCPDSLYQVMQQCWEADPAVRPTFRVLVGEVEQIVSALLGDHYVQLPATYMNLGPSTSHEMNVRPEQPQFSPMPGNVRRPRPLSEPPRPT
assay.overview: Tyrosine kinase inhibition assay
Type: biochemical
measurement.conditions: single concentration 1.0 μM, read-out: percent inhibition
experimental.readout: inhibition at 1 µM

# annotated cases, reported inhibition at 1 µM shown
{"molecule": "COc1cc2nccc(Oc3ccc(NC(=O)C4(C(=O)Nc5ccc(F)cc5)CC4)cc3)c2cc1OC [Cabozantinib, reference compound]", "inhibition at 1 µM": "95%"}
{"molecule": "COc1cc2nccc(Oc3ccc(NC(=O)C4(NC(=O)c5ccc(F)cc5)CC4)cc3F)c2cc1Oc1ccc(N)cc1F", "inhibition at 1 µM": "100%"}
{"molecule": "COc1cc2nccc(Oc3ccc(NC(=O)C4(C(=O)Nc5ccc(F)cc5)CC4)cc3F)c2cc1Oc1ccc(N)cc1F", "inhibition at 1 µM": "101%"}
{"molecule": "COc1cc2nccc(Oc3ccc(NC(=O)C4(NC(=O)c5ccc(F)cc5)CC4)cc3F)c2cc1OC", "inhibition at 1 µM": "96%"}

Let us examine a further case.
Request: Given the molecule COc1cc2nccc(Oc3ccc(NC(=O)C4(NC(=O)c5ccc(F)cc5)CC4)cc3F)c2cc1Oc1c(F)cc(N)cc1F , what is its reported inhibition at 1 µM?
Result: 100%

###

Read-out record for PDGFRA (PDGFR alpha) (Homo sapiens, UniProt P16234): pIC50
Answers are plain numbers, as −log10 of the molar value.

{"compound": "COc1cc2nccc(Oc3ccc(NC(=O)C4(C(=O)Nc5ccc(F)cc5)CC4)cc3F)c2cc1Oc1ccc(N)cc1F [Cbo-23]", "pIC50": 7.43}
{"compound": "COc1cc2nccc(Oc3ccc(NC(=O)C4(C(=O)Nc5ccc(F)cc5)CC4)cc3)c2cc1OC [Cabozantinib, reference compound]", "pIC50": 7.08}

With those in mind, consider the next compound.
Request: Consider the compound shown here: CNC(=O)c1cc2c(Oc3ccc(NC(=O)C4(C(=O)Nc5ccc(F)cc5)CC4)cc3)ccnc2cc1OC [Zanzalintinib, reference compound] What is its recorded pIC50?
Result: 7.03

###

test.target: FRK (PTK5) (Homo sapiens)
Sequence (P42685 whole entry): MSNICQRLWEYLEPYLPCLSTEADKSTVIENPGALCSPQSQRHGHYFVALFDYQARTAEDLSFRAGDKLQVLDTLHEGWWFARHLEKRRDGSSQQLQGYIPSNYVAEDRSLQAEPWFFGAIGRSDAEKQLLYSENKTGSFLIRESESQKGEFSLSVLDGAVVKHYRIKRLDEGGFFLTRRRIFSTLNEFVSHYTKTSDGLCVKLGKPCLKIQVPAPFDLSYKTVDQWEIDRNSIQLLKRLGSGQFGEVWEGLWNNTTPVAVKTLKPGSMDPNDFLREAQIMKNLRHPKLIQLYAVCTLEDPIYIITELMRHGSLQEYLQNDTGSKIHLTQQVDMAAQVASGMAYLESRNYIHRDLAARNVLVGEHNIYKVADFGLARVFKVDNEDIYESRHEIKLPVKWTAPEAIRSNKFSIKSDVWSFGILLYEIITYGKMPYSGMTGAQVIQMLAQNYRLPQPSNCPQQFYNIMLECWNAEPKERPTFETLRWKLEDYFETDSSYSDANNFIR
assay.overview: Tyrosine kinase inhibition assay
Format: biochemical
measurement.conditions: single concentration 1.0 μM, read-out: percent inhibition
Kindly supply the reported inhibition at 1 µM values for the records listed here.
Numbers only, in %.

Provide inhibition at 1 µM for all items below, preserving their order.
1. COc1cc2nccc(Oc3ccc(NC(=O)C4(C(=O)Nc5ccc(F)cc5)CC4)cc3F)c2cc1Oc1ccc(N)cc1F [Cbo-23]
2. COc1cc2nccc(Oc3ccc(NC(=O)C4(NC(=O)c5ccc(F)cc5)CC4)cc3F)c2cc1OC [Cbo-02]

Result:
[99, 59]

For every item below, please supply its inhibition at 1 µM.
1. COc1cc2nccc(Oc3ccc(NC(=O)C4(NC(=O)c5ccc(F)cc5)CC4)cc3F)c2cc1Oc1c(F)cc(N)cc1F [Cbo-14]
2. COc1cc2nccc(Oc3ccc(NC(=O)C4(C(=O)Nc5ccc(F)cc5)CC4)cc3)c2cc1OC [Cabozantinib, reference compound]
3. COc1cc2nccc(Oc3ccc(NC(=O)C4(NC(=O)c5ccc(F)cc5)CC4)cc3F)c2cc1Oc1ccc(N)cc1F [Cbo-10]

Result:
[100, 99, 91]

###

test.target: JAK2 (Homo sapiens)
Sequence (O60674 whole entry): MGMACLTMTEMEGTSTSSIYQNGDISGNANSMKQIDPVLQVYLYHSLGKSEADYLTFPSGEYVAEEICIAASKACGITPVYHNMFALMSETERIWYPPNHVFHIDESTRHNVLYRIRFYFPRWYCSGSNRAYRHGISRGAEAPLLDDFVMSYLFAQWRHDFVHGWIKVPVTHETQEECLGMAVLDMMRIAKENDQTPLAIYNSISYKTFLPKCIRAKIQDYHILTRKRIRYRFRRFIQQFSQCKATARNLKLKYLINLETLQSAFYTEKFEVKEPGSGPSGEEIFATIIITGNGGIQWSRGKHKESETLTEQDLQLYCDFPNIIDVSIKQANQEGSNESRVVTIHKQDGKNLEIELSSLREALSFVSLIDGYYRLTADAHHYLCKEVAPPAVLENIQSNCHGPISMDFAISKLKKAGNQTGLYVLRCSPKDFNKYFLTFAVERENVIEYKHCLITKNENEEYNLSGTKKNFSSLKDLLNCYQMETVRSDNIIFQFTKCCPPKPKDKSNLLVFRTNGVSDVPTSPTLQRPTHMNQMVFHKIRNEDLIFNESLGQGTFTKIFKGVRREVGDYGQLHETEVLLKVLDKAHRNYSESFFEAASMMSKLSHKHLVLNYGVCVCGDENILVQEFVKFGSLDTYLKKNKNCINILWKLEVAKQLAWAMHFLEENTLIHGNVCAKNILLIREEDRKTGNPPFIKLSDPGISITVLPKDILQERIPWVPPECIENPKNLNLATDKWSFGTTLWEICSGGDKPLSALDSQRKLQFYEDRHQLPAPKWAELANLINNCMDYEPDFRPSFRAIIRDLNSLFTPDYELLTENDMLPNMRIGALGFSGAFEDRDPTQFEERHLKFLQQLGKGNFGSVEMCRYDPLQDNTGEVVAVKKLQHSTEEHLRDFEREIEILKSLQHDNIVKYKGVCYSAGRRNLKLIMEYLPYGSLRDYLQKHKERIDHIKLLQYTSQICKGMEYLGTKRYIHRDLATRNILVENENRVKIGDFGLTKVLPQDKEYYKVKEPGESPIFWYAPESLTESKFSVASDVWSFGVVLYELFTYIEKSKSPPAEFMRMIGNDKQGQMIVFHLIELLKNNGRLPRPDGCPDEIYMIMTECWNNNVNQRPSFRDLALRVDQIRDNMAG
assay.overview: Tyrosine kinase inhibition assay
Format: biochemical
measurement.conditions: single concentration 1.0 μM, read-out: percent inhibition
experimental.readout: inhibition at 1 µM (%)
One number for each entry, in %.

Please give inhibition at 1 µM for each item listed below.
1. COc1cc2nccc(Oc3ccc(NC(=O)C4(C(=O)Nc5ccc(F)cc5)CC4)cc3)c2cc1OC [Cabozantinib, reference compound]
2. COc1cc2nccc(Oc3ccc(NC(=O)C4(NC(=O)c5ccc(F)cc5)CC4)cc3F)c2cc1Oc1c(F)cc(N)cc1F [Cbo-14]
3. COc1cc2nccc(Oc3ccc(NC(=O)C4(NC(=O)c5ccc(F)cc5)CC4)cc3F)c2cc1Oc1ccc(N)cc1F [Cbo-10]
4. COc1cc2nccc(Oc3ccc(NC(=O)C4(NC(=O)c5ccc(F)cc5)CC4)cc3F)c2cc1OC [Cbo-02]
5. COc1cc2nccc(Oc3ccc(NC(=O)C4(C(=O)Nc5ccc(F)cc5)CC4)cc3F)c2cc1Oc1ccc(N)cc1F [Cbo-23]

Result:
24
1
-1
6
58

###

test.target: EPHB2 (Homo sapiens, UniProt P29323)
Sequence (P29323 19-1055): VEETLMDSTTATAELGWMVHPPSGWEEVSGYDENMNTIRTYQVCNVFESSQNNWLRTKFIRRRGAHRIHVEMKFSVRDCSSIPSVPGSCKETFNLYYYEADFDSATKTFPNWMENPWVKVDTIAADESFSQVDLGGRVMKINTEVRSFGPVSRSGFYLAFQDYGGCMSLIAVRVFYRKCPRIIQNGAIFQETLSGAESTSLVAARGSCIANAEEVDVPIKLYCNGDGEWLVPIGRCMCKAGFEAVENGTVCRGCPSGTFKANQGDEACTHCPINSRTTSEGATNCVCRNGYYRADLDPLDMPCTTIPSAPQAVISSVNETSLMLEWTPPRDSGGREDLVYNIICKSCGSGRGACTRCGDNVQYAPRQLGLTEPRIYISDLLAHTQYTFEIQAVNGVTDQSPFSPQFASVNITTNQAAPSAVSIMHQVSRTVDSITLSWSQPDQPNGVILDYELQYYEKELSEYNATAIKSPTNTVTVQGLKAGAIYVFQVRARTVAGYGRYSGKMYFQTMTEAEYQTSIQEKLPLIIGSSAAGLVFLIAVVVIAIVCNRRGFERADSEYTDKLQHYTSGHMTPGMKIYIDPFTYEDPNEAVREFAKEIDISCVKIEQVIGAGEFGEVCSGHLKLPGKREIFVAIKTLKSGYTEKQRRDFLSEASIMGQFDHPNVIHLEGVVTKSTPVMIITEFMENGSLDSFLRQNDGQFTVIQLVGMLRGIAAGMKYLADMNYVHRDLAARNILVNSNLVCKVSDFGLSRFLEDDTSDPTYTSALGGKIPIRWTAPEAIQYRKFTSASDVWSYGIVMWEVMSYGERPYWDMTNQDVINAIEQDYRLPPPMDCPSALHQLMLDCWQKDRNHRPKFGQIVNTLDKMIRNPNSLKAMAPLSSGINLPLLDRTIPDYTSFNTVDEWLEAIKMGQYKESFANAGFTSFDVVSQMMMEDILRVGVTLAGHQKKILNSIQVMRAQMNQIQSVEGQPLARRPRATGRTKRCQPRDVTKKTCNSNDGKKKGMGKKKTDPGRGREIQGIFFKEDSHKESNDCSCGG
assay.overview: Tyrosine kinase inhibition assay
Assay type: biochemical
measurement.conditions: single concentration 1.0 μM, read-out: percent inhibition
experimental.readout: inhibition at 1 µM (%)
Give bare numbers, in %.

Here is how some molecules turned out for inhibition at 1 µM.
{"molecule": "COc1cc2nccc(Oc3ccc(NC(=O)C4(NC(=O)c5ccc(F)cc5)CC4)cc3F)c2cc1Oc1ccc(N)cc1F [Cbo-10]", "experimental.readout": "inhibition at 1 µM", "readout.units": "%", "test.value": 64}
{"molecule": "COc1cc2nccc(Oc3ccc(NC(=O)C4(NC(=O)c5ccc(F)cc5)CC4)cc3F)c2cc1OC [Cbo-02]", "experimental.readout": "inhibition at 1 µM", "readout.units": "%", "test.value": 13}
{"molecule": "COc1cc2nccc(Oc3ccc(NC(=O)C4(NC(=O)c5ccc(F)cc5)CC4)cc3F)c2cc1Oc1c(F)cc(N)cc1F [Cbo-14]", "experimental.readout": "inhibition at 1 µM", "readout.units": "%", "test.value": 77}

Next up:
Request: Which inhibition at 1 µM value belongs to COc1cc2nccc(Oc3ccc(NC(=O)C4(C(=O)Nc5ccc(F)cc5)CC4)cc3F)c2cc1Oc1ccc(N)cc1F [Cbo-23] ?
Result: 100

###

test.target: TNK1 (Homo sapiens)
Sequence (Q13470 1-666): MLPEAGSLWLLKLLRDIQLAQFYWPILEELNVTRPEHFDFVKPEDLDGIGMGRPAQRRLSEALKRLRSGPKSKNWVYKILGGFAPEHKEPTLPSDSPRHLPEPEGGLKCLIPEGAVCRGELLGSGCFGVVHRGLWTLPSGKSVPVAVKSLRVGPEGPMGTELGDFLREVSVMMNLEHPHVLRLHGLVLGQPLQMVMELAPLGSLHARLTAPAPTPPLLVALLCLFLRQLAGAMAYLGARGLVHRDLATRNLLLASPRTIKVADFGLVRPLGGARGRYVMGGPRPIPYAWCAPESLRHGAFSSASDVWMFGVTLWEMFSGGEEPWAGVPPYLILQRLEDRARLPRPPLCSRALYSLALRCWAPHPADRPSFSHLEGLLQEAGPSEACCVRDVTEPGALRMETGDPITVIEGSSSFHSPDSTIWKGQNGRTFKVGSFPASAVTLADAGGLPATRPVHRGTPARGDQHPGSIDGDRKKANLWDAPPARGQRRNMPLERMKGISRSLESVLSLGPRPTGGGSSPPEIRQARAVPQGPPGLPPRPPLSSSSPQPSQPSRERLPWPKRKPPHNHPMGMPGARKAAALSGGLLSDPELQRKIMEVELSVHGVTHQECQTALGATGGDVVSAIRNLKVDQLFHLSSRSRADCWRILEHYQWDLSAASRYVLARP
assay.overview: Tyrosine kinase inhibition assay
Format: biochemical
measurement.conditions: single concentration 1.0 μM, read-out: percent inhibition
Please respond with reported inhibition at 1 µM for every item in the list.
Numbers only, in %.

Recorded inhibition at 1 µM, per entry:
{"compound": "COc1cc2nccc(Oc3ccc(NC(=O)C4(C(=O)Nc5ccc(F)cc5)CC4)cc3F)c2cc1Oc1ccc(N)cc1F [Cbo-23]", "test.target": "TNK1 (Homo sapiens)", "readout.units": "%", "test.value": 92}
{"compound": "COc1cc2nccc(Oc3ccc(NC(=O)C4(NC(=O)c5ccc(F)cc5)CC4)cc3F)c2cc1Oc1c(F)cc(N)cc1F [Cbo-14]", "test.target": "TNK1 (Homo sapiens)", "readout.units": "%", "test.value": 64}

State recorded inhibition at 1 µM for all listed compounds.
1. COc1cc2nccc(Oc3ccc(NC(=O)C4(C(=O)Nc5ccc(F)cc5)CC4)cc3)c2cc1OC [Cabozantinib, reference compound]
2. COc1cc2nccc(Oc3ccc(NC(=O)C4(NC(=O)c5ccc(F)cc5)CC4)cc3F)c2cc1Oc1ccc(N)cc1F [Cbo-10]
3. COc1cc2nccc(Oc3ccc(NC(=O)C4(NC(=O)c5ccc(F)cc5)CC4)cc3F)c2cc1OC [Cbo-02]

Result:
[74, 39, 17]
